- Assay remarks: Urinary excretion in mice
- Format: in vivo, male mice (ddY)
- Study conditions: mouse, urine, im, 25 mg/kg, im, single dose; 0-3 hour; read-out: r: urinary recovery
Where a name gives a salt, the structure may show the parent alone.

{"Molecule": "CC1(C)S[C@@H]2[C@H](NC(=O)[C@H](NC(=O)c3c[nH]c4nc(N5CCN(C=O)CC5)ncc4c3=O)c3ccc(O)cc3)C(=O)N2[C@H]1C(=O)O [Compound 1, sodium salt]", "dose excreted at 3 h [%]": 28.2}

---

- Test system: Escherichia coli P-5101
- Assay remarks: In vitro antibacterial activity (MIC)
- Type: cell-based
- Study conditions: P5101; Escherichia coli P-5101; read-out: minimum inhibitory concentration (MIC)
Structures can show the parent of a compound that is named as a salt.
Parameter: MIC. Scope: all listed entries.

{"Molecule": "CC1(C)S[C@@H]2[C@H](NC(=O)[C@H](NC(=O)c3c[nH]c4nc(N5CCN(C=O)CC5)ncc4c3=O)c3ccc(O)cc3)C(=O)N2[C@H]1C(=O)O [Compound 1, sodium salt]", "Readout relation": "=", "MIC / µg/mL": 1.56}
{"Molecule": "CC(=O)N1CCN(c2ncc3c(=O)c(C(=O)N[C@@H](C(=O)N[C@@H]4C(=O)N5[C@@H]4SC(C)(C)[C@@H]5C(=O)O)c4ccc(O)cc4)c[nH]c3n2)CC1 [Compound 2, sodium salt]", "Readout relation": "=", "MIC / µg/mL": 0.78}
{"Molecule": "CN(C)c1ncc2c(=O)c(C(=O)N[C@@H](C(=O)N[C@@H]3C(=O)N4[C@@H]3SC(C)(C)[C@@H]4C(=O)O)c3ccc(O)cc3)c[nH]c2n1", "Readout relation": "=", "MIC / µg/mL": 1.56}
{"Molecule": "CC(=O)N1CCN(c2ncc3c(=O)c(C(=O)O)c[nH]c3n2)CC1", "Readout relation": ">", "MIC / µg/mL": 100}
{"Molecule": "O=CN1CCN(c2ncc3c(=O)c(C(=O)O)c[nH]c3n2)CC1", "Readout relation": ">", "MIC / µg/mL": 100}

---

- Assay remarks: in vivo
- Study conditions: mouse, iv
Structures can show the parent of a compound that is named as a salt.
The following compounds are listed with their measured LD50 at 168 h values.
Quantity kind: LD50 at 168 h (mg/kg)

{"Compound": "CNc1ncc2c(=O)c(C(=O)N[C@@H](C(=O)N[C@@H]3C(=O)N4[C@@H]3SC(C)(C)[C@@H]4C(=O)O)c3ccc(O)cc3)c[nH]c2n1 [Compound F, sodium salt]", "Quantity kind": "LD50 at 168 h", "Readout relation": "=", "Meas value": 1410}
{"Compound": "CC1(C)S[C@@H]2[C@H](NC(=O)[C@H](NC(=O)c3c[nH]c4nc(N)ncc4c3=O)c3ccc(O)cc3)C(=O)N2[C@H]1C(=O)O [Compound G, sodium salt]", "Quantity kind": "LD50 at 168 h", "Readout relation": "=", "Meas value": 1000}
{"Compound": "CN1CCN(c2ncc3c(=O)c(C(=O)N[C@@H](C(=O)N[C@@H]4C(=O)N5[C@@H]4SC(C)(C)[C@@H]5C(=O)O)c4ccc(O)cc4)c[nH]c3n2)CC1 [Compound A, sodium salt]", "Quantity kind": "LD50 at 168 h", "Readout relation": "=", "Meas value": 1120}
{"Compound": "CC1(C)S[C@@H]2[C@H](NC(=O)[C@H](NC(=O)c3c[nH]c4nc(N5CCN(C=O)CC5)ncc4c3=O)c3ccccc3)C(=O)N2[C@H]1C(=O)O [Compound B, sodium salt]", "Quantity kind": "LD50 at 168 h", "Readout relation": "=", "Meas value": 2830}
{"Compound": "CC(=O)N1CCN(c2ncc3c(=O)c(C(=O)N[C@@H](C(=O)N[C@@H]4C(=O)N5[C@@H]4SC(C)(C)[C@@H]5C(=O)O)c4ccc(O)cc4)c[nH]c3n2)CC1 [Compound 2, sodium salt]", "Quantity kind": "LD50 at 168 h", "Readout relation": "=", "Meas value": 4520}
{"Compound": "CC1(C)S[C@@H]2[C@H](NC(=O)[C@H](NC(=O)c3c[nH]c4nc(N5CCN(C=O)CC5)ncc4c3=O)c3ccc(O)cc3)C(=O)N2[C@H]1C(=O)O [Compound 1, sodium salt]", "Quantity kind": "LD50 at 168 h", "Readout relation": "=", "Meas value": 4520}
{"Compound": "CCN1CCN(C(=O)N[C@@H](C(=O)N[C@@H]2C(=O)N3[C@@H]2SC(C)(C)[C@@H]3C(=O)O)c2ccccc2)C(=O)C1=O [Compound H, sodium salt]", "Quantity kind": "LD50 at 168 h", "Readout relation": ">", "Meas value": 4000}
